Target entity: IKZF1 Ikaros (Homo sapiens, UniProt Q13422+Q96SW2)
Sequence (Q13422 whole entry, one chain of several): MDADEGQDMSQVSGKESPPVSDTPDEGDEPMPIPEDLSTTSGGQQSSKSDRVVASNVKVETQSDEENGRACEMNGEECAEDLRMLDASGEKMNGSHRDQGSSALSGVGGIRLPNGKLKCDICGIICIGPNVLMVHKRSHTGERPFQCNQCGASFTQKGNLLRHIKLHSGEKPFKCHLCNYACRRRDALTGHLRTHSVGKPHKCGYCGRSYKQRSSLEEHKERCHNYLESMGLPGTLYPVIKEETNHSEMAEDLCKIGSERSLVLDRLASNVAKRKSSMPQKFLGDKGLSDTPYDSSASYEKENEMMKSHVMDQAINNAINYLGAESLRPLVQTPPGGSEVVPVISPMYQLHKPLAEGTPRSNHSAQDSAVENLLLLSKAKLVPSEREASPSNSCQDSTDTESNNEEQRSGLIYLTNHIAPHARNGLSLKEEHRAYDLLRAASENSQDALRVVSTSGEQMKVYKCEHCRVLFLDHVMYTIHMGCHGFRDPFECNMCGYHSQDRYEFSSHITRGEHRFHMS
Protocol details: Jurkat Cellular Degradation Assay
Format: cell-based
Parameters: fluorescently labelled antibodies against Helios, Ikaros and Aiolos; endogenous in cells; host or cells: Jurkat cells
Test settings: Jurkat cells, 24 h; 50% reduction of protein vs DMSO alone
Method: Jurkat cells were plated at 80,000 cells/well in 40 µL RPMI + 10% FBS in a 384-well cell culture plate prior to using acoustic dispensing technology for adding a compound of interest. Cell cultures were incubated for 24 h at 37 °C and 5% CO2. […] Stained cells were resuspended in 25 µL of flow cytometry staining buffer [PBS + 0.2% bovine serum albumin (BSA)] and analyzed using an Intellicyt Ique Plus flow cytometer. […]
Measure: DC50 (µM)

Solved cases (4 shown):
CC1(C)Cc2cc(-c3ccc(-c4cn(C5CCC(=O)NC5=O)c(=O)o4)c(F)c3)nc(N)c2O1 (stereo not shown): 1.51
CO[C@H]1C[C@H](Oc2c(C)cc(-c3ccc(-c4cn(C5CCC(=O)NC5=O)c(=O)o4)c(F)c3)nc2N)C1 (relative stereo): 4.38
Cc1cc(-c2ccc(-c3cn(C4CCC(=O)NC4=O)c(=O)o3)c(F)c2)nc(N)c1NCC1CCOCC1 (stereo not shown): 5.6
COC1CCN(Cc2ccc(-c3ccc(-c4cn(C5CCC(=O)NC5=O)c(=O)o4)c(F)c3)nc2N)CC1 (stereo not shown): 1.2

(P) O=C1CCC(n2cc(-c3ccccc3)oc2=O)C(=O)N1 (stereo not shown) [Comparative Compound A, reference compound]
(Q) Cc1cc(-c2ccc(-c3cn(C4CCC(=O)NC4=O)c(=O)o3)c(F)c2)nc(N)c1COC1CCOCC1 (stereo not shown)
Which entry shows the lesser value of DC50 here, P or Q ? Your choice should be expressed through its label.
P
(P: 1.52 µM, Q: 7.9 µM)

====

Target entity: IKZF1 Ikaros (Homo sapiens, UniProt Q13422+Q96SW2)
Protocol details: Jurkat Cellular Degradation Assay
Assay type: cell-based
Set-up: fluorescently labelled antibodies against Helios, Ikaros and Aiolos; endogenous in cells; host or cells: Jurkat cells
Test settings: Jurkat cells, 24 h; 100% = complete degradation
Measure: IKZF1 Ikaros max % deg. observed (%)

Cc1cc(-c2ccc(-c3cn(C4CCC(=O)NC4=O)c(=O)o3)c(F)c2)nc(N)c1COC1CCOCC1 (centres unmarked): 51
COC1CCN(Cc2ccc(-c3ccc(-c4cn(C5CCC(=O)NC5=O)c(=O)o4)c(F)c3)nc2N)CC1 (centres unmarked): 69
O=C1CCC(n2cc(-c3ccccc3)oc2=O)C(=O)N1 (centres unmarked) [Comparative Compound A, reference compound]: 70

(1) CC1(C)Cc2cc(-c3ccc(-c4cn(C5CCC(=O)NC5=O)c(=O)o4)c(F)c3)nc(N)c2O1 (centres unmarked)
(2) O=C1CCC(n2cc(-c3ccc(Br)cc3F)oc2=O)C(=O)N1 (centres unmarked) [Comparative Compound B, reference compound]
Which entry shows the lesser value of IKZF1 Ikaros max % deg. observed here, 1 or 2 ? Your choice should be expressed through its label.
2
(2: 24%, 1: 63%)

====

Target entity: IKZF2 Helios (Homo sapiens, UniProt Q96SW2+Q9UKS7)
Sequence (Q9UKS7 whole entry): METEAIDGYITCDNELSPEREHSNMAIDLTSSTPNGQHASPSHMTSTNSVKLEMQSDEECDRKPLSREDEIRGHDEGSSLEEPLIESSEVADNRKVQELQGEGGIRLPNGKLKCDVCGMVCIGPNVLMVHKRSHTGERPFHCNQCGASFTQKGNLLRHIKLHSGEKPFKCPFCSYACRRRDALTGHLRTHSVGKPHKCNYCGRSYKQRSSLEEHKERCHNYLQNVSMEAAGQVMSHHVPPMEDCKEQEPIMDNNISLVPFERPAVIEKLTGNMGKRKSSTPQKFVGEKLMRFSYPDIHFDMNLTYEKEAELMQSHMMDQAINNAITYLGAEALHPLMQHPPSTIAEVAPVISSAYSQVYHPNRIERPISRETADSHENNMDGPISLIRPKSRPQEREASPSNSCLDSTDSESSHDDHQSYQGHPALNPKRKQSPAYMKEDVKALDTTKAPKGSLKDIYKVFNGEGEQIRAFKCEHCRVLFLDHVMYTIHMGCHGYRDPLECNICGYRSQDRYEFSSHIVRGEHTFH
Sequence (Q96SW2 whole entry): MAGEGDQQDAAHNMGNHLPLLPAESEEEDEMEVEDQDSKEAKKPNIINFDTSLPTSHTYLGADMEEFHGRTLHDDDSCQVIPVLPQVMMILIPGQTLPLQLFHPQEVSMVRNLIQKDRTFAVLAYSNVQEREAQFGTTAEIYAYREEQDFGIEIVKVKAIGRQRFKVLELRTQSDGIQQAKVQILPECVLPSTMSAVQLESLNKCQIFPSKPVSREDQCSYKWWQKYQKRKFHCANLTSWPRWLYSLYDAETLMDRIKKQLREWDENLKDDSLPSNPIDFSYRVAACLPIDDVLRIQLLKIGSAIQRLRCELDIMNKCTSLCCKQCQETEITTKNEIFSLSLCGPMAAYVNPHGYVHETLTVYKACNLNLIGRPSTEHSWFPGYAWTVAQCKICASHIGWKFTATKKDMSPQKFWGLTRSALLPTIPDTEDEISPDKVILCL
Sequence (Q16531 whole entry partner): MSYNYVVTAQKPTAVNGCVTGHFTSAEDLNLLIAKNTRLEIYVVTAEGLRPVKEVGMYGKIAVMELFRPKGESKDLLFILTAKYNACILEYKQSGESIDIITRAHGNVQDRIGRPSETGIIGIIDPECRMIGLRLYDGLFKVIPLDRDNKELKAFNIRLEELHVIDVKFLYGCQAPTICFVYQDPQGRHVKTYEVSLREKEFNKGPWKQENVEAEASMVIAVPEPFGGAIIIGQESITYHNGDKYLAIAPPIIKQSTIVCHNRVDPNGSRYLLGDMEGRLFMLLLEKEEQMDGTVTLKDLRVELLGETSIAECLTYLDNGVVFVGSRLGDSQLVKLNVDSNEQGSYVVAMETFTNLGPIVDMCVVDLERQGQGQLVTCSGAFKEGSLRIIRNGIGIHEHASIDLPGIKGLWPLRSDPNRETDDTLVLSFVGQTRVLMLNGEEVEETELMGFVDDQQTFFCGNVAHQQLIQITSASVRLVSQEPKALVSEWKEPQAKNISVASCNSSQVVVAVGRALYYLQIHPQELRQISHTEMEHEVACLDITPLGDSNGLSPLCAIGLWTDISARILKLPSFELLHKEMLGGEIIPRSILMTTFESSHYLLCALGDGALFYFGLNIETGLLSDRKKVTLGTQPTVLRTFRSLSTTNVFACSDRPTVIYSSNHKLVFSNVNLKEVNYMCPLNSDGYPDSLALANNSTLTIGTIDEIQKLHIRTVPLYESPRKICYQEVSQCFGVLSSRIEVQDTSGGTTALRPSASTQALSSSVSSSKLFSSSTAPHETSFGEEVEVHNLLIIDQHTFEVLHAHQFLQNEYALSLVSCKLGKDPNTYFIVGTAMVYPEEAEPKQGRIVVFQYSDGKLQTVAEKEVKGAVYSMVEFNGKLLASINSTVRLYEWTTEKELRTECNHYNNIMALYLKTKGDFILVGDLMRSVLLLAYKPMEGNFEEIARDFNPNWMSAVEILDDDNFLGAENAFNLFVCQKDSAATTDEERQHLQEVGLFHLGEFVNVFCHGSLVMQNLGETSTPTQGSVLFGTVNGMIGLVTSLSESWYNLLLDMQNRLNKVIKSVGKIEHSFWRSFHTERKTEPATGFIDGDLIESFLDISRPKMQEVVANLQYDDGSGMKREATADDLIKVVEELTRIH
Protocol details: Jurkat Cellular Degradation Assay
Type: cell-based
Set-up: fluorescently labelled antibodies against Helios, Ikaros and Aiolos; endogenous in cells; host or cells: Jurkat cells
Test settings: Jurkat cells, 24 h; 50% reduction of protein vs DMSO alone
Measure: DC50 (µM)

Solved cases (3 shown):
Cc1cc(-c2ccc(-c3cn(C4CCC(=O)NC4=O)c(=O)o3)c(F)c2)nc(N)c1COC1CCOCC1 (stereo not shown): 0.05
CO[C@H]1C[C@H](Oc2c(C)cc(-c3ccc(-c4cn(C5CCC(=O)NC5=O)c(=O)o4)c(F)c3)nc2N)C1 (relative stereo): 0.037
COC1CCN(Cc2ccc(-c3ccc(-c4cn(C5CCC(=O)NC5=O)c(=O)o4)c(F)c3)nc2N)CC1 (stereo not shown): 0.034

(P) CC1(C)Cc2cc(-c3ccc(-c4cn(C5CCC(=O)NC5=O)c(=O)o4)c(F)c3)nc(N)c2O1 (stereo not shown)
(Q) Cc1cc(-c2ccc(-c3cn(C4CCC(=O)NC4=O)c(=O)o3)c(F)c2)nc(N)c1NCC1CCOCC1 (stereo not shown)
Which entry shows the lesser value of DC50 here, P or Q ? Your choice should be expressed through its label.
P

====

Target entity: IKZF1 Ikaros (Homo sapiens, UniProt Q13422+Q96SW2)
Protocol details: Human Regulatory T Cell Degradation Assay
Format: cell-based
Parameters: Foxp3-BV421, HELIOS-PE-Cy7, EOS-PE, IKAROS-PECF594, AIOLOS-AF647; endogenous in cells; host or cells: human PBMC from healthy donors (CD8+ T cells gated by flow cytometry)
Test settings: human regulatory T cells, 20 hours; vs DMSO alone
Measure: DC50 (µM)

Solved cases (3 shown):
Cc1cc(-c2ccc(-c3cn(C4CCC(=O)NC4=O)c(=O)o3)c(F)c2)nc(N)c1COC1CCOCC1 (centres unmarked): 6.5
CC1(C)Cc2cc(-c3ccc(-c4cn(C5CCC(=O)NC5=O)c(=O)o4)c(F)c3)nc(N)c2O1 (centres unmarked): 8.23
COC1CCN(Cc2ccc(-c3ccc(-c4cn(C5CCC(=O)NC5=O)c(=O)o4)c(F)c3)nc2N)CC1 (centres unmarked): 3.79

(I) CO[C@H]1C[C@H](Oc2c(C)cc(-c3ccc(-c4cn(C5CCC(=O)NC5=O)c(=O)o4)c(F)c3)nc2N)C1 (relative stereo)
(II) Cc1cc(-c2ccc(-c3cn(C4CCC(=O)NC4=O)c(=O)o3)c(F)c2)nc(N)c1NCC1CCOCC1 (centres unmarked)
API: POST /compare with I and II ; response names the item with higher DC50. Your choice should be expressed through its label.
II
(II: 6.47 µM, I: 0.95 µM)

====

Target entity: IKZF3 Aiolos (Homo sapiens, UniProt Q96SW2+Q9UKT9)
Sequence (Q9UKT9 whole entry, one chain of several): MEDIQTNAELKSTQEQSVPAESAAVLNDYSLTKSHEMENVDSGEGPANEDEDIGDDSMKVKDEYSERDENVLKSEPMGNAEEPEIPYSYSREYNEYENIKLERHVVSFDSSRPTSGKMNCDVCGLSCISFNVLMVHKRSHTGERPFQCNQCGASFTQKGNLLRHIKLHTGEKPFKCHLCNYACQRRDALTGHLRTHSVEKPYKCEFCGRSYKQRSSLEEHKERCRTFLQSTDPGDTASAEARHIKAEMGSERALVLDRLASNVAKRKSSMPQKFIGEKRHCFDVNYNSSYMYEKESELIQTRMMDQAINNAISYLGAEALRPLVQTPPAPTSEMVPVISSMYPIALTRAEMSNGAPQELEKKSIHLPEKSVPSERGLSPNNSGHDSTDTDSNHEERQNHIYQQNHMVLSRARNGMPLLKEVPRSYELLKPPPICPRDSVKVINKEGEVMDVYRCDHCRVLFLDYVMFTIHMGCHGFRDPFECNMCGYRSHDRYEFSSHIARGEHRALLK
Protocol details: Human CD8+ T Cell Reprogramming Assay (method headed Human CD8+ T Cell Degradation Assay)
Type: cell-based
Parameters: Foxp3-BV421, HELIOS-PE-Cy7, EOS-PE, IKAROS-PECF594, AIOLOS-AF647; endogenous in cells; host or cells: human PBMC from healthy donors (CD8+ T cells gated by flow cytometry)
Test settings: human PBMC, CD8+ T cells, 24 hours; vs DMSO alone
Measure: DC50 (nM)

Solved cases (3 shown):
Cc1cc(-c2ccc(-c3cn(C4CCC(=O)NC4=O)c(=O)o3)c(F)c2)nc(N)c1NCC1CCOCC1 (stereo not shown): 193
CO[C@H]1C[C@H](Oc2c(C)cc(-c3ccc(-c4cn(C5CCC(=O)NC5=O)c(=O)o4)c(F)c3)nc2N)C1 (relative stereo): 86
O=C1CCC(n2cc(-c3ccccc3)oc2=O)C(=O)N1 (stereo not shown) [Comparative Compound A, reference compound]: 21

(A) COC1CCN(Cc2ccc(-c3ccc(-c4cn(C5CCC(=O)NC5=O)c(=O)o4)c(F)c3)nc2N)CC1 (stereo not shown)
(B) Cc1cc(-c2ccc(-c3cn(C4CCC(=O)NC4=O)c(=O)o3)c(F)c2)nc(N)c1COC1CCOCC1 (stereo not shown)
API: POST /compare with A and B ; response names the item with higher DC50. Your choice should be expressed through its label.
B
(B: 131 nM, A: 18 nM)

====

Target entity: IKZF4 Eos (Homo sapiens, UniProt Q96SW2+Q9H2S9)
Construct: endogenous in cells; host or cells: primary human CD4+CD127lowCD25+ Treg cells from healthy leukopaks
Sequence (Q9H2S9 whole entry): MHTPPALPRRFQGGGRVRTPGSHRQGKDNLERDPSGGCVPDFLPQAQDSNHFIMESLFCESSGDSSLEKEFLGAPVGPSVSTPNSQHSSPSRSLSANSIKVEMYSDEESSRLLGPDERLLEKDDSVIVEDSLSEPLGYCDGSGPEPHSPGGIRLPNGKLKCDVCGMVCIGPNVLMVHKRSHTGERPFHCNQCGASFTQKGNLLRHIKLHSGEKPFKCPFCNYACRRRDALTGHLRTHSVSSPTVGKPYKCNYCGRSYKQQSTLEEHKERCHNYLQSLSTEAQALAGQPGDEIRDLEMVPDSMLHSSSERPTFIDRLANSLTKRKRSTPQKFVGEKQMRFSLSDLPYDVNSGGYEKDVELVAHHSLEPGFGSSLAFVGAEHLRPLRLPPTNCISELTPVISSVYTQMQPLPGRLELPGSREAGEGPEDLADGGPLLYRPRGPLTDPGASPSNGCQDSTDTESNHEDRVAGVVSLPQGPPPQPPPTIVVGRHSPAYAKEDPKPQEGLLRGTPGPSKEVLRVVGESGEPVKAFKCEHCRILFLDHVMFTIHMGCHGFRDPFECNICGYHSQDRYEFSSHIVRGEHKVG
Sequence (Q96SW2 whole entry): as the sequence (Q96SW2 whole entry) above
Sequence (Q16531 whole entry partner): as the sequence (Q16531 whole entry partner) above
Protocol details: Human Regulatory T Cell Degradation Assay
Format: cell-based
Test settings: human regulatory T cells, 20 hours; vs DMSO alone
Measure: DC50 (nM)

Solved cases (2 shown):
Cc1cc(-c2ccc(-c3cn(C4CCC(=O)NC4=O)c(=O)o3)c(F)c2)nc(N)c1NCC1CCOCC1 (centres unmarked): 141
CO[C@H]1C[C@H](Oc2c(C)cc(-c3ccc(-c4cn(C5CCC(=O)NC5=O)c(=O)o4)c(F)c3)nc2N)C1 (relative stereo): 193

(P) COC1CCN(Cc2ccc(-c3ccc(-c4cn(C5CCC(=O)NC5=O)c(=O)o4)c(F)c3)nc2N)CC1 (centres unmarked)
(Q) CC1(C)Cc2cc(-c3ccc(-c4cn(C5CCC(=O)NC5=O)c(=O)o4)c(F)c3)nc(N)c2O1 (centres unmarked)
(R) Cc1cc(-c2ccc(-c3cn(C4CCC(=O)NC4=O)c(=O)o3)c(F)c2)nc(N)c1COC1CCOCC1 (centres unmarked)
Sort ascending by DC50. Dear reader, please state the labels in the requested order.
Q, P, R

====

Target entity: IKZF3 Aiolos (Homo sapiens, UniProt Q96SW2+Q9UKT9)
Protocol details: Human Regulatory T Cell Degradation Assay
Type: cell-based
Parameters: Foxp3-BV421, HELIOS-PE-Cy7, EOS-PE, IKAROS-PECF594, AIOLOS-AF647; endogenous in cells; host or cells: human PBMC from healthy donors (CD8+ T cells gated by flow cytometry)
Test settings: human regulatory T cells, 20 hours; vs DMSO alone
Recorded measurements of DC50, one per entry

Name the recorded DC50 for Cc1cc(-c2ccc(-c3cn(C4CCC(=O)NC4=O)c(=O)o3)c(F)c2)nc(N)c1COC1CCOCC1 (centres unmarked) .
> 10 µM

Name the recorded DC50 for COC1CCN(Cc2ccc(-c3ccc(-c4cn(C5CCC(=O)NC5=O)c(=O)o4)c(F)c3)nc2N)CC1 (centres unmarked) .
> 10 µM

Name the recorded DC50 for Cc1cc(-c2ccc(-c3cn(C4CCC(=O)NC4=O)c(=O)o3)c(F)c2)nc(N)c1NCC1CCOCC1 (centres unmarked) .
> 10 µM

Name the recorded DC50 for CC1(C)Cc2cc(-c3ccc(-c4cn(C5CCC(=O)NC5=O)c(=O)o4)c(F)c3)nc(N)c2O1 (centres unmarked) .
> 10 µM

Name the recorded DC50 for CO[C@H]1C[C@H](Oc2c(C)cc(-c3ccc(-c4cn(C5CCC(=O)NC5=O)c(=O)o4)c(F)c3)nc2N)C1 (relative stereo) .
> 100 µM
